target: Cholecystokinin receptor type A (Homo sapiens, UniProt P32238)

{"compound": "COc1ccc(N(C)C(=O)CN2C(=O)C(NC(=O)Nc3ccccc3)C(=O)N(c3ccccc3)c3ccccc32)cc1 (stereo unspecified)", "target under test": "Cholecystokinin receptor type A (Homo sapiens, UniProt P32238)", "units symbol": "nM", "IC50": 25}

====

target: Cholecystokinin receptor type A (Homo sapiens, UniProt P32238)
pIC50: −log10 of the molar value.

{"molecule": "COc1ccc(N(C)C(=O)CN2C(=O)C(NC(=O)Nc3ccccc3)C(=O)N(c3ccccc3)c3ccccc32)cc1 (stereo unspecified)", "pIC50": 7.85}
